A collection of variants and their measured abundance fitness
B1: Androgen receptor, residues 557 to 632; numbered along this chain, P10275 (parent)
chain: QKTCLICGDEASGCHYGALTCGSCKVFFKRAAEGKQKYLCASRNDCTIDKFRRKNCPSCRLRKCYEAGMTLGARKL

# Variants of: B1
# EXPERIMENT NOTES: abundance fitness (aPCA) (normalised: wild type 0, dead -1); higher = more abundant; growth selection in yeast, the domain comes from the species named
# CONDITION SET: Homo sapiens
REPORTED METRIC: abundance fitness

> print(dat)
    mutation.id  result.value
 1         D49K        -0.317
 2         R52T         0.067
 3         C46T        -0.713
 4          L5I         -0.04
 5         A73L        -0.176
 6         R30Y        -0.191
 7         R30H         0.114
 8         D49G        -0.197
 9         A73W        -0.203
10         Q36R        -0.144
11         K63V        -0.142
